The measured values listed here are drawn from patent US20250368745A1.

Biological target: T1, human IL-18BP (human, UniProt O95998 31-194)
T1 construct: UniProt printed as 095998; also called hIL-18BP
T1 sequence: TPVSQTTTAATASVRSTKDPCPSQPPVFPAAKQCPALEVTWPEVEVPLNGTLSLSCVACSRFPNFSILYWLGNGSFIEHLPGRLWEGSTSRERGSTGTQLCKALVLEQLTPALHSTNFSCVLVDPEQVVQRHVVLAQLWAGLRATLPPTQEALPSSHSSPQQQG
Assay: BLI, apparent KD
pKd: −log10 of the molar value.

{"columns": ["binder", "pKd"],
 "data": [
  ["SA301a HC-N58P (antibody, name in Kabat numbering, V domains shown, IgG1 kappa) VH: QVQLQESGPGLVKPSQTLSLTCTVSGYSITSDYNSHWIRQPPGKGLEWIGYIHYSGSTPYNPSLKSRVTISRDTSKNQFSLKLSSVTAADTAVYYCARNYGSIYVNYFDYWGQGTLVTVSS VL: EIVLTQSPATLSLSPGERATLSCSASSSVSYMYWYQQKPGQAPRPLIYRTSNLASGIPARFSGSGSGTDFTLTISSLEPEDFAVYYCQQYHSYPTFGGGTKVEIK", 9.39],
  ["SA301a HC-S56P (antibody, name in Kabat numbering, V domains shown, IgG1 kappa) VH: QVQLQESGPGLVKPSQTLSLTCTVSGYSITSDYNSHWIRQPPGKGLEWIGYIHYSGPTNYNPSLKSRVTISRDTSKNQFSLKLSSVTAADTAVYYCARNYGSIYVNYFDYWGQGTLVTVSS VL: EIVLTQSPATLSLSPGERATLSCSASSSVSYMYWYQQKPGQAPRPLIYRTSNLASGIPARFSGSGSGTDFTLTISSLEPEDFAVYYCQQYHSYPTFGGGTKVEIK", 9.01],
  ["SA301a HC-S54A (antibody, name in Kabat numbering, V domains shown, IgG1 kappa) VH: QVQLQESGPGLVKPSQTLSLTCTVSGYSITSDYNSHWIRQPPGKGLEWIGYIHYAGSTNYNPSLKSRVTISRDTSKNQFSLKLSSVTAADTAVYYCARNYGSIYVNYFDYWGQGTLVTVSS VL: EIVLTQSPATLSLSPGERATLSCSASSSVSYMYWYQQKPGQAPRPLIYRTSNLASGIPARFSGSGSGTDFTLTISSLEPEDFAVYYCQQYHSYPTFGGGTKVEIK", 9.96]
]}
